From: ChEMBL document CHEMBL1126054

target: GABA-A receptor; anion channel; assay: Displacement of [3H]muscimol from Gamma-aminobutyric acid A (GABA-A) receptor; assay type: protein-complex assay, Rattus norvegicus
Measured Endpoint: pIC50
Give only the number. pIC50 is defined as minus log10 of concentration in molar units.

response.value for c1ccc2c(c1)Cc1ccccc1-n1c-2nnc1N1CCNCC1 [PITRAZEPINE] (field: pIC50) = 6.62
